From: the Human Domainome abundance scans (Beltran et al. 2025)

B1: Dystrobrevin alpha, residues 235 to 294; numbered along this chain, Q9Y4J8 (parent)
chain: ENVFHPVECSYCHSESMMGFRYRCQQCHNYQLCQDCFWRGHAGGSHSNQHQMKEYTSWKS

Variants of: B1
Test: abundance fitness (aPCA) (normalised: wild type 0, dead -1); higher = more abundant; growth selection in yeast, the domain comes from the species named
Settings: Homo sapiens
Property: abundance fitness
Numbers only.

[
  {
    "Mutant Designation": "Q25K",
    "abundance fitness": -0.003
  },
  {
    "Mutant Designation": "Q25W",
    "abundance fitness": -0.662
  }
]

Kindly give each listed record's abundance fitness.
1. E8G
2. G19A
3. N48H
4. M52H

[0.051, 0.176, -0.174, -0.87]

Kindly give each listed record's abundance fitness.
1. A42L
2. H13I
3. R39M

-0.285
-0.406
-0.072

Kindly give each listed record's abundance fitness.
1. E8N
2. Y11C
3. E8V

1: -0.17; 2: -0.247; 3: -0.329
